- Tested on: Escherichia coli TOP10
- Measurement protocol: shrunken log2 fold change of peptide-encoding DNA abundance (4.5 h post-induction vs induction); higher = less antimicrobial activity (less host growth inhibition)
- Condition notes: time post-induction: 4.5 h; library: site-saturation at positions 5, 18, 19, 20
A collection of sequences and their measured shrunken log2 fold change

Field: example entries. Status: answers known.
RRIRPRPPRLPRPRPRPFEIPRP: -0.0325
RRIRMRPPRLPRPRPRPAQYPRP: 0.377
RRIRFRPPRLPRPRPRPFPRPRP: -0.0288
RRIRNRPPRLPRPRPRPCERPRP: -0.00992
RRIRMRPPRLPRPRPRPCRLPRP: 0.0956
RRIRKRPPRLPRPRPRPPGRPRP: 2.07

Input: API: value(readout=shrunken log2 fold change, system=Escherichia coli TOP10) for record RRIRPRPPRLPRPRPRPQRRPRP
Output: -0.359

Input: What value of shrunken log2 fold change on Escherichia coli TOP10 does RRIRKRPPRLPRPRPRPKTDPRP have?
Output: 0.343

Input: Return shrunken log2 fold change measured with Escherichia coli TOP10 given this sequence: RRIRWRPPRLPRPRPRPLPGPRP
Output: 0.215

Input: Query for Escherichia coli TOP10: what shrunken log2 fold change does the record show for RRIRMRPPRLPRPRPRPGTIPRP ?
Output: 0.228

###

Parameter shrunken log2 fold change: see the listing below.
- Test system: Escherichia coli TOP10
- Measurement protocol: shrunken log2 fold change of peptide-encoding DNA abundance (4.5 h post-induction vs induction); higher = less antimicrobial activity (less host growth inhibition)
- Condition notes: time post-induction: 4.5 h; library: site-saturation at positions 5, 18, 19, 20
# output: bare number, no unit

Input: Lab note: need shrunken log2 fold change for RRIRTRPPRLPRPRPRPPIRPRP on Escherichia coli TOP10, anyone have it?
Output: -0.1

Input: # query: shrunken log2 fold change | item RRIRLRPPRLPRPRPRPNARPRP | system: Escherichia coli TOP10
Output: 0.1

Input: So what shrunken log2 fold change did RRIRYRPPRLPRPRPRPRASPRP get with Escherichia coli TOP10?
Output: -0.412

Input: Please state recorded shrunken log2 fold change (tested on Escherichia coli TOP10) of RRIRDRPPRLPRPRPRPMGQPRP
Output: 0.0515

Input: Value wanted: shrunken log2 fold change (Escherichia coli TOP10) of entry RRIRERPPRLPRPRPRPHCIPRP
Output: -0.000243

Input: Give recorded shrunken log2 fold change with Escherichia coli TOP10 for the following sequence: RRIRYRPPRLPRPRPRPYYSPRP
Output: 0.0106

###

- System: Escherichia coli TOP10;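 note: peptides expressed intracellularly from a pBAD plasmid library in pooled LB shake-flask culture, induced with 0.3% L-arabinose, DNA abundance read by NGS, three biological replicates, DESeq2 with apeglm shrinkage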
- Measurement protocol: shrunken log2 fold change of peptide-encoding DNA abundance (4.5 h post-induction vs induction); higher = less antimicrobial activity (less host growth inhibition)
- Condition notes: time post-induction: 4.5 h; library: site-saturation at positions 5, 18, 19, 20
Quantity measured: shrunken log2 fold change

RRIRERPPRLPRPRPRPHPGPRP: 0.033
RRIRHRPPRLPRPRPRPVDDPRP: -0.221
RRIRQRPPRLPRPRPRPGDMPRP: -0.164
RRIRPRPPRLPRPRPRPPKTPRP: 0.246
RRIRDRPPRLPRPRPRPHPLPRP: -0.216
RRIRIRPPRLPRPRPRPLDSPRP: -0.0212
RRIRQRPPRLPRPRPRPHIVPRP: -0.225
RRIRFRPPRLPRPRPRPMFLPRP: -0.712
RRIRWRPPRLPRPRPRPACKPRP: -0.0942
RRIRNRPPRLPRPRPRPGVYPRP: -0.241

Input: Dear colleague, I am looking for the recorded shrunken log2 fold change of the following sequence: RRIRNRPPRLPRPRPRPSCCPRP
Output: -0.318

Input: So what's the measured shrunken log2 fold change for this one? RRIRWRPPRLPRPRPRPYWEPRP
Output: -0.0146

Input: Can you share its shrunken log2 fold change? I mean this sequence: RRIRRRPPRLPRPRPRPWSEPRP
Output: -0.142
